# assay: Cmax in BALB/c mouse infected with Influenza A A/WSN/33 (H1N1) virus at 50 mg/kg, po measured after 24 hrs by LC-MS analysis
# Format: ADME, organism-based
# Design: time 24 hrs, dose 50 mg/kg, route po
# test_settings: in vivo
metric_name: Cmax (ng/mL)
Kindly provide the numeric value in ng/mL only, without the unit symbol.

[Q] Give the reported Cmax for this molecule. `Cc1ncsc1-c1ccc(CNC(=O)[C@@H]2CCCN2C(=O)[C@@H](NC(=O)CCOCCOCCOCCNC(=O)[C@]23CCC(C)(C)C[C@H]2C2=CC[C@@H]4[C@@]5(C)CC[C@H](O)C(C)(C)[C@@H]5CC[C@@]4(C)[C@]2(C)CC3)C(C)(C)C)cc1`
[A] 2070
